B1: TFE3 (parent)
chain: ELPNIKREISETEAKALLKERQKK

variants of: B1; assay: protein stability index of a GFP-peptide fusion (GPS, HEK-293T) (PSI 1-6); higher = more stable; conditions: c terminus: a fixed tail appended;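 note: lentivirally expressed fusions sorted by FACS into six bins by GFP to DsRed ratio, PSI derived from sequencing read proportions per bin multiplied by bin number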
Catalogue of variants with associated protein stability index
Give only the figure.

mutation.name	test.result
Q22D	2.11
E11N	2.99
K24A	2.46
K23F	2.36
K24T	2.79
A16V	2.79

Indicate its recorded protein stability index; the variant in question is P3C
2.43

// fetch protein stability index given entry I5H
4.61

Return value of protein stability index for input A16T , no commentary.
2.96

Give protein stability index for K6I
2.04

Fill in protein stability index for record E1P
4.81
